Each entry below lists one item and its recorded GI50 value.
Test system: IGROV-1
Assay: NCI tumour cell line growth inhibition, 48 h
Active and inactive are the calls of the source. Rule as the data show it: active = GI50 up to about 1.1 µM and inactive = higher.
measured.attribute: GI50

molecule	measured.attribute	result
CCn1c(=O)c2c3cc(O)ccc3oc2c2ccc(O)cc21	GI50	42.6 µM (inactive)
COc1ccc(C(=O)O/N=C2\CCCC\C2=C/c2ccccc2)cc1	GI50	> 100 µM (inactive)
O=C(NC(=S)Nc1ccccc1)c1ccc([N+](=O)[O-])cc1	GI50	71.9 µM (inactive)
CC#COP(=O)(OCC)OCC	GI50	> 100 µM (inactive)
O=C1Nc2ccccc2/C1=N\c1cccc2ncccc12	GI50	51.1 µM (inactive)
CCCn1c(SC)nc(COC(=O)NC)c1COC(=O)NC	GI50	> 100 µM (inactive)
CC1=NNC(=O)[C@H]2[C@H]1CCC1[C@@H]2CC[C@]2(C)[C@@H](O)CC[C@@H]12 (some centres not stated)	GI50	> 100 µM (inactive)
O=c1[nH]c(=O)n(C2CC(O)C(COP(=O)(O)OC3CC(n4cc(F)c(=O)[nH]c4=O)OC3COP(=O)(O)OC3CC(n4cc(F)c(=O)[nH]c4=O)OC3COP(=O)(O)OC3CC(n4cc(F)c(=O)[nH]c4=O)OC3COP(=O)(O)OC3CC(n4cc(F)c(=O)[nH]c4=O)OC3COP(=O)(O)OC3CC(n4cc(F)c(=O)[nH]c4=O)OC3COP(=O)(O)OC3CC(n4cc(F)c(=O)[nH]c4=O)OC3COP(=O)(O)OC3CC(n4cc(F)c(=O)[nH]c4=O)OC3COP(=O)(O)OC3CC(n4cc(F)c(=O)[nH]c4=O)OC3COP(=O)(O)OC3CC(n4cc(F)c(=O)[nH]c4=O)OC3CO)O2)cc1F (configuration not stated)	GI50	0.0435 µM (active)
COc1cc2c(cc1OCCCOc1cc3c(cc1OC)C(=O)N1CCC[C@H]1CN3)N=C[C@@H]1CCCN1C2=O	GI50	0.201 µM (active)
O=C(CP(=O)(c1ccccc1)c1ccccc1)c1cccc(C(=O)CP(=O)(c2ccccc2)c2ccccc2)c1	GI50	55.2 µM (inactive)
O=C1CC2CC(CC3(CO3)C2)C1F (configuration not stated)	GI50	> 100 µM (inactive)
CCCC(=O)C(CC)/C(CCC(=O)N(Cc1ccccc1)Cc1ccccc1)=N/NC(=O)C[N+](C)(C)C (configuration not stated)	GI50	> 100 µM (inactive)
Cc1ccc(-c2n[nH]c(=O)n2/N=C\c2ccccc2)cc1	GI50	47.5 µM (inactive)
C/C(=N\NC(=S)NC1CCCC1)c1ccccn1	GI50	< 0.01 µM (active)
OCCN(CCO)c1ccc2c(C(F)(F)F)cc(C(F)(F)F)nc2n1	GI50	> 100 µM (inactive)
CO[C@H]1O[C@@H]2CO[C@@H](c3ccccc3)O[C@H]2[C@@H]2CC=CCC[C@]12O	GI50	59.6 µM (inactive)
CCOC(=O)C1N(S(=O)(=O)c2ccc(C)cc2)CCC12c1ccccc1NC2c1ccc(OC)c(OC)c1 (configuration not stated)	GI50	14.6 µM (inactive)

---

Tested on: NCI-H226
Test: NCI tumour cell line growth inhibition, 48 h
Active and inactive are the calls of the source. No stated cut-off is given here; in the data, active = GI50 up to about 1.1 µM and inactive = higher.
Outcome codes: active, inactive

molecule	assigned.class
Cc1ccc2c(=O)c(-c3n[nH]c(=S)s3)c[nH]c2n1	inactive
OCCN(CCO)c1ccc2c(C(F)(F)F)cc(C(F)(F)F)nc2n1	inactive
O=c1oc2ccccc2n1CCCn1c(=O)oc2ccccc21	inactive
NC(CCCCO)C(=O)O (centres undefined)	inactive
CC(N)Cc1cccc(C(F)(F)F)c1 (centres undefined)	inactive
O=C(O)c1ccccc1C1CCCc2c1[nH]c1ccccc21 (centres undefined)	inactive
C=CCSC[C@H](NC(=O)COc1ccccc1)C(=O)NC(C(=O)OCc1ccc([N+](=O)[O-])cc1)=C(C)C	inactive
CCCCCCCCCc1cc(=O)c2c(O)cc(O)cc2o1	inactive
COC(=O)C1=C(O)C(C(=O)OC)[C@]2(O)[C@H](C(=O)OC)[C@H]1C[C@@H](c1ccc([N+](=O)[O-])cc1)[C@H]2C(=O)OC (some centres undefined)	inactive
Clc1cc(-c2csc(Cl)c2)cs1	inactive
COC1=Nc2ccccc2S(=O)(=O)C=C1	inactive
CC1(F)C=CC(=O)C=C1	inactive
NCC(=O)Nc1ccccc1	inactive
C=C1C(=O)O[C@@H]2C[C@@H](C)[C@@H]3C=CC(=O)[C@@]3(C)[C@@H](OC(=O)CCCC(=O)O[C@H]3[C@@H]4C(=C)C(=O)O[C@@H]4C[C@@H](C)[C@@H]4C=CC(=O)[C@]43C)[C@H]12	active
COc1ccc(OC)c(-c2nc(O)c3ccccc3n2)c1	inactive
CC(C)(C)N/N=C(\C(=O)Nc1ccc([N+](=O)[O-])cc1[N+](=O)[O-])c1nc2ccc([N+](=O)[O-])cc2nc1O	inactive
O=C(O)c1ccccc1CC1Cc2cc3c(cc2C1)CCC3	inactive
[O-]c1c2c(nn1-c1ccccc1)c1ccccc1c[n+]2Cc1ccccc1	inactive
c1c[nH]c(-c2cccc3nsnc23)c1	inactive
Cc1c(-c2ccccc2)oc(=O)c2ccccc12	inactive
Cc1cn([C@H]2C[C@H](O)[C@@H](CO)O2)c(=O)nc1N	inactive
COc1cc2c3cc1Oc1c(OC)c(OC)cc4c1C(Cc1ccc(O)c(c1)-c1cc(ccc1OC)CC3N(C)CC2)N(C)CC4 (centres undefined)	inactive
COC(=O)CN1CCS/C1=N/C#N	inactive
O=C(CCc1cccc(O)c1)NCCc1cccc(O)c1	inactive
